assay: cytotoxicity in HPDE-C7 cells, cell-based, fluorescence, HTS (AID 430); conditions: HPDE-C7 pancreatic duct cells viability, at 10 µM;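 note: cells exposed to compound for 48 hours before viability readout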
Out of some 63,000 compounds screened, about 1,100 (1.7%) were called active. Cut-off read from the data, not from the text of the source: active = cytotoxicity above about 50%; inactive = the rest. Many of the other results were omitted from the sample, so actives are more common in it than they were. Entries with a potency or affinity are not part of this list.
Select the matching outcome among T (active), F (inactive)

COc1ccc(N2CCN(C(=O)c3ccc(CS(=O)(=O)c4ccc(OC)cc4)o3)CC2)cc1 | F

query: Hi team, can someone confirm the assay call for COc1ccc(S(=O)(=O)Cc2ccc(C(=O)N3CCN(c4cccc(C)c4C)CC3)o2)cc1 ?
result: T

query: What call does the record list for O=S(=O)(c1cccc(-c2nnc(SCc3ccc(Cl)cc3)o2)c1)N1CCCCC1 ?
result: F

query: Please indicate how the test categorized COc1ccc(C2CC(C(F)(F)F)n3nc(C(=O)Nc4ccc5c(c4)OCO5)cc3N2)cc1 (stereo unspecified) .
result: F

Measured values drawn from PubChem BioAssay AID430 for this set.
